Origin of measurements: paper PMC10541411

Biological target: 53BP1^TT (tandem Tudor domain of 53BP1, residues 1481–1603) (Homo sapiens)
Construct: The tandem Tudor domain of 53BP1 (53BP1^TT, residues 1481–1603) was purified as previously described
Sequence (Q12888 1481-1603): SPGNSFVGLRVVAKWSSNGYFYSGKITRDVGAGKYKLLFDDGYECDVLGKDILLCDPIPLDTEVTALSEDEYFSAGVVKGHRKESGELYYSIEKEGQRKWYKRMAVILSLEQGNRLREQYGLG
Assay: Isothermal titration calorimetry (ITC) of small molecules with 53BP1TT
Details: 25 °C, 50 mM Tris-HCl pH 7.5, 50 mM NaCl, one-site model; read-out: Kd (apparent, ITC)
Assay readout: pKd
One number for each entry, as −log10 of the molar value.

CC(C)(C)NCCCNC(=O)c1cccc(I)c1 5.41
CC(C)c1cccc(C(=O)NCCCNC(C)(C)C)c1 6.00

### Prompt Bench note: what pKd did "CC(C)(C)NCCCNC(=O)c1cccc(C(F)(F)F)c1" show?
### Response 5.17
